Data origin, for the record: paper PMC10397247

# target.desc: T1, 4H575-bA
# T1 chain: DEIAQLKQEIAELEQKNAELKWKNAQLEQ
# run.description: two-hybrid library CCNG1;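 further: natural log of median RNA to DNA barcode read ratio; higher means stronger binding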
measured.endpoint: interaction score

{"binder": "DKNQELEKENEELKRKIWELEKEIQELKR [4H3298-bH]", "interaction score": -1.29}

1 = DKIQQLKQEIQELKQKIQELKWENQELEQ [4H2667-bN]
2 = DKNAQLEQKIAELKQKIAELEWENAQLEQ [4H3427-bA]
3 = DEIAQLEQENAELEQKIAELKWEIAQLKQ [4H170-bA]
4 = DEIAQLEQKIAELKQENAELKWEIAQLKQ [4H346-bA]
List items by interaction score in falling order. Please respond with the labels ordered as the question requires.
2, 4, 3, 1
